Data origin: PubChem BioAssay (NCI)

# System: UACC-62 melanoma
# test.summary: NCI tumour cell line growth inhibition, 48 h; in the data active = GI50 below about 0.43 µM; inactive = the rest
Hi! Could you answer with just one of these? y (active), n (inactive)

Solved cases (5 shown):
Cc1c(C(N)=O)sc2c1c(=O)n(Cc1ccccc1)c1nnc(S(=O)(=O)CC(=O)Nc3ccc(Cl)cc3)n21 | n
O=C1C=C(OCCCl)C(=O)c2c(O)ccc(O)c21 | y
CCCC(CCC)C(=O)OCC1(CO)C/C(=C\c2ccc(C(F)(F)F)cc2)C(=O)O1 (configuration not stated) | n
COc1cc2c(cc1OCCCCCn1c3ccccc3c3ccccc31)N=C[C@@H]1CCCN1C2=O | n
CCc1nc(N)nc(N)c1C#CC(C)c1cc(-c2ccnc(C)c2)c2oc(C)nc2c1 (configuration not stated) | y

Q. // param item: `O=C(CN1C(=O)S/C(=C\C(Cl)=C\c2ccccc2)C1=O)NCCCn1ccnc1` ; yields the recorded call
A. n

Q. // param item: NS(=O)(=O)c1ccc(N2N=C(c3cccs3)CC2c2ccccc2O)cc1 (configuration not stated) ; yields the recorded call
A. n
